Measurement Target: MOR (Mus musculus)
Sequence (P42866 whole entry): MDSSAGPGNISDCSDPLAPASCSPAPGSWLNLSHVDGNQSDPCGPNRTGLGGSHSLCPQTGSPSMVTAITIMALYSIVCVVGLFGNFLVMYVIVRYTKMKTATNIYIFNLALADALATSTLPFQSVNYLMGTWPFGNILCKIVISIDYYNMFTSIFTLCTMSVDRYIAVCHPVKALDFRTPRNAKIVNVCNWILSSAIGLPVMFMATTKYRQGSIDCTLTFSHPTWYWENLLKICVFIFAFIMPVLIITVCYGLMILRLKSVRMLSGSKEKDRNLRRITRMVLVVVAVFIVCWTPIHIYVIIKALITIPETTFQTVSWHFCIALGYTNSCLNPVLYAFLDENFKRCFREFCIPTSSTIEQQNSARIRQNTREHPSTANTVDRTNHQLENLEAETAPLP
Procedure Summary: biochemical
Type: biochemical
Conditions: read-out: MOR [35S]GTPγS Binding % Emax of DAMGO
Binary call on Emax: criterion met from 40% upward, criterion not met beneath that.

[
  {
    "Smi": "Cl.O=C(N[C@@H]1CC[C@@]2(O)[C@H]3Cc4ccc(O)c5c4[C@@]2(CCN3CC2CC2)[C@H]1O5)c1ccoc1",
    "Category Label": "criterion not met"
  },
  {
    "Smi": "Cl.O=C(CCc1cc[nH]c1)N[C@@H]1CC[C@@]2(O)[C@H]3Cc4ccc(O)c5c4[C@@]2(CCN3CC2CC2)[C@H]1O5",
    "Category Label": "criterion not met"
  },
  {
    "Smi": "Cl.O=C(Cc1ccoc1)N[C@@H]1CC[C@@]2(O)[C@H]3Cc4ccc(O)c5c4[C@@]2(CCN3CC2CC2)[C@H]1O5",
    "Category Label": "criterion not met"
  },
  {
    "Smi": "Cl.O=C(CCc1ccc[nH]1)N[C@H]1CC[C@@]2(O)[C@H]3Cc4ccc(O)c5c4[C@@]2(CCN3CC2CC2)[C@H]1O5",
    "Category Label": "criterion not met"
  },
  {
    "Smi": "Cl.O=C(Cc1cc[nH]c1)N[C@H]1CC[C@@]2(O)[C@H]3Cc4ccc(O)c5c4[C@@]2(CCN3CC2CC2)[C@H]1O5",
    "Category Label": "criterion not met"
  },
  {
    "Smi": "Cl.O=C(N[C@H]1CC[C@@]2(O)[C@H]3Cc4ccc(O)c5c4[C@@]2(CCN3CC2CC2)[C@H]1O5)c1ccco1",
    "Category Label": "criterion not met"
  },
  {
    "Smi": "Cl.O=C(Cc1ccc[nH]1)N[C@@H]1CC[C@@]2(O)[C@H]3Cc4ccc(O)c5c4[C@@]2(CCN3CC2CC2)[C@H]1O5",
    "Category Label": "criterion met"
  },
  {
    "Smi": "Cl.O=C(Cc1ccc[nH]1)N[C@H]1CC[C@@]2(O)[C@H]3Cc4ccc(O)c5c4[C@@]2(CCN3CC2CC2)[C@H]1O5",
    "Category Label": "criterion not met"
  },
  {
    "Smi": "Cl.O=C(Cc1cc[nH]c1)N[C@@H]1CC[C@@]2(O)[C@H]3Cc4ccc(O)c5c4[C@@]2(CCN3CC2CC2)[C@H]1O5",
    "Category Label": "criterion met"
  },
  {
    "Smi": "Cl.O=C(Cc1ccco1)N[C@H]1CC[C@@]2(O)[C@H]3Cc4ccc(O)c5c4[C@@]2(CCN3CC2CC2)[C@H]1O5",
    "Category Label": "criterion not met"
  },
  {
    "Smi": "Cl.O=C(N[C@@H]1CC[C@@]2(O)[C@H]3Cc4ccc(O)c5c4[C@@]2(CCN3CC2CC2)[C@H]1O5)c1ccco1",
    "Category Label": "criterion not met"
  }
]

* * *

Measurement Target: UniProtKB P42866
Procedure Summary: biochemical
Format: biochemical
Listed next: entries and their corresponding MOR [35S]GTPγS Binding % Emax of DAMGO.
Measurement Name: MOR [35S]GTPγS Binding % Emax of DAMGO (%)

[
  {
    "Compound": "Cl.O=C(Cc1ccoc1)N[C@H]1CC[C@@]2(O)[C@H]3Cc4ccc(O)c5c4[C@@]2(CCN3CC2CC2)[C@H]1O5 [Compound 21]",
    "Recorded Measurement": 14.95
  },
  {
    "Compound": "Cl.O=C(N[C@H]1CC[C@@]2(O)[C@H]3Cc4ccc(O)c5c4[C@@]2(CCN3CC2CC2)[C@H]1O5)c1cc[nH]c1 [Compound 7]",
    "Recorded Measurement": 16.65
  },
  {
    "Compound": "Cl.O=C(N[C@H]1CC[C@@]2(O)[C@H]3Cc4ccc(O)c5c4[C@@]2(CCN3CC2CC2)[C@H]1O5)c1ccoc1 [Compound 19]",
    "Recorded Measurement": 18.14
  },
  {
    "Compound": "Cl.O=C(N[C@H]1CC[C@@]2(O)[C@H]3Cc4ccc(O)c5c4[C@@]2(CCN3CC2CC2)[C@H]1O5)c1ccc[nH]1 [Compound 1]",
    "Recorded Measurement": 12.11
  }
]

* * *

Measurement Target: KOR (Mus musculus, UniProt P33534)
Sequence (P33534 whole entry): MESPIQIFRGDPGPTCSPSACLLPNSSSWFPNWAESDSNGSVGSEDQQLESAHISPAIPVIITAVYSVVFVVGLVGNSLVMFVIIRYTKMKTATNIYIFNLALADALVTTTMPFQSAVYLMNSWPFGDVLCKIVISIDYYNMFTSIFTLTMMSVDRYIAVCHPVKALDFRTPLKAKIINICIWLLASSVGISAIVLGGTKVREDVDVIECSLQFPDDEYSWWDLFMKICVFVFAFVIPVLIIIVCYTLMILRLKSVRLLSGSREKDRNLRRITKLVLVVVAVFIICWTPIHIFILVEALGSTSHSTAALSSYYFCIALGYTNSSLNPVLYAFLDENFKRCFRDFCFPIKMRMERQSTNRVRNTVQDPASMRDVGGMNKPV
Procedure Summary: biochemical
Conditions: read-out: KOR [35S]GTPγS Binding % Emax of U50,488H
Measurement Name: Emax (%)

[
  {
    "Smi": "Cl.O=C(Cc1ccco1)N[C@@H]1CC[C@@]2(O)[C@H]3Cc4ccc(O)c5c4[C@@]2(CCN3CC2CC2)[C@H]1O5",
    "Measurement Name": "Emax",
    "Unit Tag": "%",
    "Recorded Measurement": 49.3
  },
  {
    "Smi": "Cl.O=C(N[C@@H]1CC[C@@]2(O)[C@H]3Cc4ccc(O)c5c4[C@@]2(CCN3CC2CC2)[C@H]1O5)c1ccco1",
    "Measurement Name": "Emax",
    "Unit Tag": "%",
    "Recorded Measurement": 67.2
  },
  {
    "Smi": "Cl.O=C(Cc1ccco1)N[C@H]1CC[C@@]2(O)[C@H]3Cc4ccc(O)c5c4[C@@]2(CCN3CC2CC2)[C@H]1O5",
    "Measurement Name": "Emax",
    "Unit Tag": "%",
    "Recorded Measurement": 63.3
  },
  {
    "Smi": "Cl.O=C(N[C@H]1CC[C@@]2(O)[C@H]3Cc4ccc(O)c5c4[C@@]2(CCN3CC2CC2)[C@H]1O5)c1ccc[nH]1",
    "Measurement Name": "Emax",
    "Unit Tag": "%",
    "Recorded Measurement": 43.4
  }
]

* * *

Measurement Target: DOR (Homo sapiens)
Procedure Summary: biochemical
Assay type: binding
Binary call on Selectivity δ/μ: Condition met from 30 upward, Condition not met beneath that.

[
  {
    "Smi": "Cl.O=C(Cc1ccc[nH]1)N[C@@H]1CC[C@@]2(O)[C@H]3Cc4ccc(O)c5c4[C@@]2(CCN3CC2CC2)[C@H]1O5",
    "Category Label": "Condition met"
  },
  {
    "Smi": "Cl.O=C(CCc1ccc[nH]1)N[C@@H]1CC[C@@]2(O)[C@H]3Cc4ccc(O)c5c4[C@@]2(CCN3CC2CC2)[C@H]1O5",
    "Category Label": "Condition met"
  },
  {
    "Smi": "Cl.O=C(Cc1cc[nH]c1)N[C@H]1CC[C@@]2(O)[C@H]3Cc4ccc(O)c5c4[C@@]2(CCN3CC2CC2)[C@H]1O5",
    "Category Label": "Condition not met"
  },
  {
    "Smi": "Cl.O=C(N[C@H]1CC[C@@]2(O)[C@H]3Cc4ccc(O)c5c4[C@@]2(CCN3CC2CC2)[C@H]1O5)c1cc[nH]c1",
    "Category Label": "Condition met"
  },
  {
    "Smi": "Cl.O=C(N[C@@H]1CC[C@@]2(O)[C@H]3Cc4ccc(O)c5c4[C@@]2(CCN3CC2CC2)[C@H]1O5)c1ccoc1",
    "Category Label": "Condition met"
  },
  {
    "Smi": "Cl.O=C(Cc1ccoc1)N[C@H]1CC[C@@]2(O)[C@H]3Cc4ccc(O)c5c4[C@@]2(CCN3CC2CC2)[C@H]1O5",
    "Category Label": "Condition not met"
  },
  {
    "Smi": "Cl.O=C(CCc1cc[nH]c1)N[C@@H]1CC[C@@]2(O)[C@H]3Cc4ccc(O)c5c4[C@@]2(CCN3CC2CC2)[C@H]1O5",
    "Category Label": "Condition met"
  },
  {
    "Smi": "Cl.O=C(CCc1ccco1)N[C@@H]1CC[C@@]2(O)[C@H]3Cc4ccc(O)c5c4[C@@]2(CCN3CC2CC2)[C@H]1O5",
    "Category Label": "Condition met"
  },
  {
    "Smi": "Cl.O=C(Cc1ccoc1)N[C@@H]1CC[C@@]2(O)[C@H]3Cc4ccc(O)c5c4[C@@]2(CCN3CC2CC2)[C@H]1O5",
    "Category Label": "Condition met"
  },
  {
    "Smi": "Cl.O=C(Cc1ccc[nH]1)N[C@H]1CC[C@@]2(O)[C@H]3Cc4ccc(O)c5c4[C@@]2(CCN3CC2CC2)[C@H]1O5",
    "Category Label": "Condition not met"
  },
  {
    "Smi": "Cl.O=C(CCc1ccco1)N[C@H]1CC[C@@]2(O)[C@H]3Cc4ccc(O)c5c4[C@@]2(CCN3CC2CC2)[C@H]1O5",
    "Category Label": "Condition not met"
  }
]

* * *

Measurement Target: DOR (Homo sapiens, UniProt P41143)
Sequence (P41143 whole entry): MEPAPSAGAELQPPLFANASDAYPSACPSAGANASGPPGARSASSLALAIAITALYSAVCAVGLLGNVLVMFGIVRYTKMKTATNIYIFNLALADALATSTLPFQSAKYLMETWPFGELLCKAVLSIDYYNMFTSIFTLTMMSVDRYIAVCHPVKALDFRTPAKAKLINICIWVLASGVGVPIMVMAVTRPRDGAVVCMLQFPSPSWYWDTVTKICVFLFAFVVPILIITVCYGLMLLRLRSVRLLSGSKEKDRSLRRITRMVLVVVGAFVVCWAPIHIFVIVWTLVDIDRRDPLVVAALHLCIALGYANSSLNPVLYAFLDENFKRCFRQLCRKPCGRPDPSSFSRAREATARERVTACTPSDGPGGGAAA
Procedure Summary: biochemical
Conditions: read-out: DOR [35S]GTPγS Binding % Emax of SNC80
Measurement Name: Emax (%)

[
  {
    "Smi": "Cl.O=C(N[C@H]1CC[C@@]2(O)[C@H]3Cc4ccc(O)c5c4[C@@]2(CCN3CC2CC2)[C@H]1O5)c1ccc[nH]1",
    "Recorded Measurement": 50.9
  },
  {
    "Smi": "Cl.O=C(N[C@@H]1CC[C@@]2(O)[C@H]3Cc4ccc(O)c5c4[C@@]2(CCN3CC2CC2)[C@H]1O5)c1ccco1",
    "Recorded Measurement": 23.1
  },
  {
    "Smi": "Cl.O=C(Cc1ccco1)N[C@@H]1CC[C@@]2(O)[C@H]3Cc4ccc(O)c5c4[C@@]2(CCN3CC2CC2)[C@H]1O5",
    "Recorded Measurement": 31.2
  },
  {
    "Smi": "Cl.O=C(Cc1ccco1)N[C@H]1CC[C@@]2(O)[C@H]3Cc4ccc(O)c5c4[C@@]2(CCN3CC2CC2)[C@H]1O5",
    "Recorded Measurement": 66.8
  }
]
